Documented pIC50 across a set of molecules
- experimental-target: UniProt Q96PC2
- Sequence (Q96PC2 whole entry): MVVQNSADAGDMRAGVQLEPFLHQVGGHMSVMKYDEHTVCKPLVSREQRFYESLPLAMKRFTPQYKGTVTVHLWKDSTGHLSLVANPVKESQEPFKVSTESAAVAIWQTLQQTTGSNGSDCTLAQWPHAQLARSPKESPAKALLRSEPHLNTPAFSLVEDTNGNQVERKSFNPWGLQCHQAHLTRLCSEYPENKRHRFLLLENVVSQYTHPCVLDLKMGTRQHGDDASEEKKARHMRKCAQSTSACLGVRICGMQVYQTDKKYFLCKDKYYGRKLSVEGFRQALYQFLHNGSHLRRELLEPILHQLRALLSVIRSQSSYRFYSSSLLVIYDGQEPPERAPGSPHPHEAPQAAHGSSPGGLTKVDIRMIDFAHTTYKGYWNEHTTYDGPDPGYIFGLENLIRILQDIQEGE
- experiment-description: Enzyme-coupled assay of IP6K3 activity (Dipp1-coupled, malachite green Pi release)
- Type: biochemical
- protocol-conditions: enzyme-coupled assay; Table 4
pIC50: −log10 of the molar value. Structures can show the parent of a compound that is named as a salt.

Example entries and their recorded answers appear below.
>  <molecule>
O=C(Nc1cccc(-c2onc3ccc(-c4nnn[nH]4)cc23)c1)C1CCCC1

>  <pIC50>
7.00 to 8.00

$$$$
>  <molecule>
Clc1cnc(Oc2cccc(-c3onc4ccc(-c5nnn[nH]5)cc34)c2)c(Cl)c1

>  <pIC50>
7.00 to 8.00

$$$$
>  <molecule>
c1cc(OC2CCNCC2)cc(-c2onc3ccc(-c4nnn[nH]4)cc23)c1 [Compound 82, hydrochloride]

>  <pIC50>
6.00 to 7.00

$$$$
>  <molecule>
Clc1ccccc1-c1onc2ccc(-c3nnn[nH]3)cc12

>  <pIC50>
6.00 to 7.00

$$$$
>  <molecule>
O=C(Nc1ccc(-c2onc3ccc(-c4nnn[nH]4)cc23)cc1)C1CCCC1

>  <pIC50>
> 8.00

$$$$
>  <molecule>
O=C(Nc1cccc(-c2onc3ccc(-c4nnn[nH]4)cc23)c1)C1CC1

>  <pIC50>
7.00 to 8.00

$$$$

What measured pIC50 is associated with CN(C)CCOc1cccc(-c2onc3ccc(-c4nnn[nH]4)cc23)c1 on UniProt Q96PC2?
6.00 to 7.00

What measured pIC50 is associated with c1ccc(-c2onc3ccc(-n4cncn4)cc23)cc1 on UniProt Q96PC2?
4.00 to 6.00

What measured pIC50 is associated with c1cncc(-c2ccc(-c3onc4ccc(-c5nnn[nH]5)cc34)cc2)c1 on UniProt Q96PC2?
6.00 to 7.00

What measured pIC50 is associated with c1cc(OCCN2CCOCC2)cc(-c2onc3ccc(-c4nnn[nH]4)cc23)c1 on UniProt Q96PC2?
6.00 to 7.00

What measured pIC50 is associated with c1ccc(-c2onc3ccc(-c4nc[nH]n4)cc23)cc1 on UniProt Q96PC2?
4.00 to 6.00

What measured pIC50 is associated with Clc1ccc(-c2onc3ccc(-c4nnn[nH]4)cc23)cc1Cl on UniProt Q96PC2?
6.00 to 7.00

---

- experimental-target: UniProt Q92551
- Sequence (Q92551 whole entry): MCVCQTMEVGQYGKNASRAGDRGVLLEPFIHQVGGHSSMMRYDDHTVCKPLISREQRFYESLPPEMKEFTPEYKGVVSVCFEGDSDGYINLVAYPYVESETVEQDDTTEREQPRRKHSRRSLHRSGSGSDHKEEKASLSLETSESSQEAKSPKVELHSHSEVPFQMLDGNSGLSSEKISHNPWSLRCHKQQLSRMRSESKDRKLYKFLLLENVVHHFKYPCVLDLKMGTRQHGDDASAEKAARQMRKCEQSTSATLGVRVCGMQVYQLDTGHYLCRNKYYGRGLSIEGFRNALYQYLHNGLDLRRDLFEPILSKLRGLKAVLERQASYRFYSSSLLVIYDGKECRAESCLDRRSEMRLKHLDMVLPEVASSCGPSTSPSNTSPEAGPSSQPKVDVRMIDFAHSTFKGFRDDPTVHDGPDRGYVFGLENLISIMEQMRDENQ
- experiment-description: Enzyme-coupled assay of IP6K1 activity (Dipp1-coupled, malachite green Pi release)
- Assay type: biochemical
- protocol-conditions: enzyme-coupled assay; Table 2
pIC50: −log10 of the molar value.
Documented pIC50 across a set of molecules

Example entries and their recorded answers appear below.
>  <given-smiles>
COc1ccc(COc2cncc(-c3cccc(-c4onc5ccc(C(=O)O)cc45)c3)c2)cc1

>  <pIC50>
6.00 to 7.00

$$$$
>  <given-smiles>
CC(C)NC(=O)c1ccc2noc(-c3ccccc3)c2c1

>  <pIC50>
4.00 to 6.00

$$$$
>  <given-smiles>
CNC(=O)c1ccc2noc(-c3cccc(Oc4ncc(Cl)cc4Cl)c3)c2c1

>  <pIC50>
6.00 to 7.00

$$$$
>  <given-smiles>
CNC(=O)c1ccc2noc(-c3ccc(-c4ccccc4)cc3)c2c1

>  <pIC50>
7.00 to 8.00

$$$$

Now, please, on to the next molecule.
Find the recorded pIC50 belonging to CC(C)C(=O)Nc1cccc(-c2onc3ccc(C(=O)O)cc23)c1 and report it.
4.00 to 6.00
